Data credit: patent US12655160B2

biological target: KRas G12D (Homo sapiens, UniProt P01116, G12D); experiment: KRas G12D Surface Plasmon Resonance (SPR) Binding Assay; conditions: Biacore T200, Biotinylated Avidin-tagged KRAS protein on SA chip, 20 C, 1:1 binding model
Sequence (P01116 1-188 isoform P01116-2 G12D): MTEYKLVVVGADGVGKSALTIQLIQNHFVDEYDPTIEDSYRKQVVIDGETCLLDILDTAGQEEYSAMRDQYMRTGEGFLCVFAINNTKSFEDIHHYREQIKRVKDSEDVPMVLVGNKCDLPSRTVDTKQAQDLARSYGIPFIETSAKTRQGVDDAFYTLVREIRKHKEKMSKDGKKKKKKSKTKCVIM
pKd: −log10 of the molar value. Where a name gives a salt, the structure may show the parent alone.
readout: pKd

>>> result_number("CN(C)C1(CNc2nc(OC[C@@]34CCCN3C[C@H](F)C4)nc3c(F)c(-c4cc(O)cc5ccccc45)ncc23)CCC1")
7.83
>>> result_number("CN(CC1(N(C)C)CCC1)c1nc(OC[C@@]23CCCN2C[C@H](F)C3)nc2c(F)c(-c3cc(O)cc4cccc(Cl)c34)ncc12 [Example 36, dihydrochloride]")
6.87
>>> result_number("CN(C)C1(CNc2nc(OC[C@@]34CCCN3C[C@H](F)C4)nc3c(F)c(-c4cc(O)cc5ccccc45)ncc23)CCCC1 [Example 7, bis(2,2,2-trifluoroacetate)]")
7.91
>>> result_number("CC1(CNc2nc(OC[C@@]34CCCN3C[C@H](F)C4)nc3c(F)c(-c4cc(O)cc5ccccc45)ncc23)CNC1")
7.18
>>> result_number("C#Cc1cccc2cc(O)cc(-c3ncc4c(NCC5(N(C)C)CCC5)nc(OC[C@@]56CCCN5C[C@H](F)C6)nc4c3F)c12")
10.40

====

target: KRas G12D (Homo sapiens, UniProt P01116, G12D); assay: KRas G12D Binding Assay (TR-FRET displacement of labeled tracer); details: TR-FRET displacement of Cy5 labelled tracer, Biotinylated GDP-loaded KRAS G12D (amino acids 1:169), 60 minute incubation at 22° C.
Sequence (P01116 1-169 isoform P01116-2 G12D): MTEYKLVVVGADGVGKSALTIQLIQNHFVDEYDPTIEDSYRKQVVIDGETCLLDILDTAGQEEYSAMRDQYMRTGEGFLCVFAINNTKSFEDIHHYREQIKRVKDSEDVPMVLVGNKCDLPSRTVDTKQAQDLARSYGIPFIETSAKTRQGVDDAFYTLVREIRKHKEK
readout: IC50 (nM)

>>> result_number("CN(CC1(N(C)C)CCC1)c1nc(OCC23CCCN2CCC3)nc2c(F)c(-c3cccc4cccc(F)c34)ncc12 [Example 58]")
9090
>>> result_number("CCc1cccc2cccc(-c3ncc4c(NCC5(N(C)C)CCC5)nc(OC[C@@]56CCCN5C[C@H](F)C6)nc4c3F)c12 [Example 21]")
59.2
>>> result_number("C#Cc1c(F)ccc2cc(O)cc(-c3ncc4c(NCC5(N(C)C)CCC5)nc(OC[C@]56CCCN5[C@@H](COC(=O)N(C)C)CC6)nc4c3F)c12 [Example 45]")
0.4

====

target: KRas G12D (Homo sapiens, UniProt P01116, G12D); assay: KRas G12D Binding Assay (TR-FRET displacement of labeled tracer); details: TR-FRET displacement of Cy5 labelled tracer, Biotinylated GDP-loaded KRAS G12D (amino acids 1:169), 60 minute incubation at 22° C.
Structures can show the parent of a compound that is named as a salt.
readout: IC50 (nM)

>>> result_number("CN(C)C1(CNc2nc(OCCc3nccn3C)nc3c(F)c(-c4cc(O)cc5ccccc45)ncc23)CCC1 [Example 31]")
857
>>> result_number("CC(C)c1ccccc1-c1ncc2c(NCC3(N(C)C)CCC3)nc(OCC34CCCN3CCC4)nc2c1F [Example 9, bis(2,2,2-trifluoroacetate)]")
2170
>>> result_number("CCc1cccc2cc(O)cc(-c3ncc4c(N(C)CC5(N(C)C)CCC5)nc(OC[C@@]56CCCN5C[C@H](F)C6)nc4c3F)c12 [Example 37, dihydrochloride]")
26.1
>>> result_number("CN(CC1(N(C)C)CCC1)c1nc(OC[C@@]23CCCN2C[C@H](F)C3)nc2c(F)c(-c3cc(O)cc4cccc(Cl)c34)ncc12 [Example 36, dihydrochloride]")
76.5
>>> result_number("Cc1cc2[nH]ncc2c(-c2ncc3c(NCC4(N(C)C)CCC4)nc(OC[C@@]45CCCN4C[C@H](F)C5)nc3c2F)c1Cl [Example 12, bis(2,2,2-trifluoroacetate)]")
100
>>> result_number("C[C@H]1CNC[C@@H]1Nc1nc(OCC23CCCN2CCC3)nc2c(F)c(-c3cc(O)cc4ccccc34)ncc12 [Example 19]")
245
>>> result_number("Cc1c(Cl)cc2[nH]ncc2c1-c1ncc2c(NCC3(N(C)C)CCC3)nc(OC[C@@]34CCCN3C[C@H](F)C4)nc2c1F [Example 13, bis(2,2,2-trifluoroacetate)]")
165
>>> result_number("CN(C)C1(CNc2nc(OC[C@@]34CCCN3C[C@H](F)C4)nc3c(F)c(-c4cc(O)cc5ccccc45)ncc23)CC1 [Example 6]")
117
>>> result_number("CN(C)C1(CNc2nc(OC[C@]34CCCN3[C@@H](COC(=O)N3CCCC3)CC4)nc3c(F)c(-c4cccc5cccc(Cl)c45)ncc23)CCC1 [Example 49]")
232
>>> result_number("NC1(CNc2nc(OCC34CCCN3CCC4)nc3c(F)c(-c4cccc5cccc(F)c45)ncc23)CCC1 [Example 60]")
2120
>>> result_number("CC(C)c1ccccc1-c1ncc2c(NCC3(N(C)C)CCC3)nc(OC[C@@]34CCCN3C[C@H](F)C4)nc2c1F [Example 10, bis(2,2,2-trifluoroacetate)]")
3720
>>> result_number("CN[C@H]1C[C@@H](Nc2nc(OCC34CCCN3CCC4)nc3c(F)c(-c4cc(O)cc5ccccc45)ncc23)C1 [Example 17]")
80.9

====

The reader will find reported IC50 values listed item by item below.
target: KRas G12D (Homo sapiens, UniProt P01116, G12D); assay: KRas G12D Binding Assay (TR-FRET displacement of labeled tracer); conditions: TR-FRET displacement of Cy5 labelled tracer, Biotinylated GDP-loaded KRAS G12D (amino acids 1:169), 60 minute incubation at 22° C.
readout: IC50 (nM)

>>> result_number("NC1(CNc2nc(OC[C@@]34CCCN3C[C@H](F)C4)nc3c(F)c(-c4cc(O)cc5ccccc45)ncc23)CCC1 [Example 29, bis(2,2,2-trifluoroacetate)]")
62.8
>>> result_number("CN(C)C1(CNc2nc(OCC34CCCN3CCC4)nc3c(F)c(-c4cccc5cccc(Cl)c45)ncc23)CCC1 [Example 54]")
79.3
>>> result_number("CC(C)c1c(Cl)cccc1-c1ncc2c(NCC3(N(C)C)CCC3)nc(OC[C@@]34CCCN3C[C@H](F)C4)nc2c1F [Example 48]")
1080

====

target: KRas G12D (Homo sapiens, UniProt P01116, G12D); assay: KRas G12D Binding Assay (TR-FRET displacement of labeled tracer); details: TR-FRET displacement of Cy5 labelled tracer, Biotinylated GDP-loaded KRAS G12D (amino acids 1:169), 60 minute incubation at 22° C.
readout: IC50 (nM)

>>> result_number("CCc1cccc2cc(O)cc(-c3ncc4c(NCC5(N(C)C)CCC5)nc(OC[C@@]56CCCN5[C@H](COC(=O)NC)CC6)nc4c3F)c12 (racemic)")
0.7
>>> result_number("CN(C)C(C)(C)CNc1nc(OCC23CCCN2CCC3)nc2c(F)c(-c3cccc4cccc(Cl)c34)ncc12")
938
>>> result_number("CCc1c(F)ccc2cccc(-c3ncc4c(NCC5(N(C)C)CCC5)nc(OCC56CCCN5CCC6)nc4c3F)c12 [Example 35, bis(2,2,2-trifluoroacetate)]")
30.4
>>> result_number("C#Cc1cccc2cc(O)cc(-c3ncc4c(NCC5(N(C)C)CCC5)nc(OC[C@@]56CCCN5C[C@H](F)C6)nc4c3F)c12")
0.6
>>> result_number("CCc1cccc2cc(O)cc(-c3ncc4c(NCC5(N(C)C)CCC5)nc(OC[C@]56CCCN5[C@@H](COC(=O)N(C)C)CC6)nc4c3F)c12")
1.1
>>> result_number("CN(C)C1(CNc2nc(OC[C@@]34CCCN3C[C@H](F)C4)nc3c(F)c(-c4cc(O)cc5ccccc45)ncc23)CCCC1 [Example 7, bis(2,2,2-trifluoroacetate)]")
10
>>> result_number("Oc1cc(-c2ncc3c(NC[C@]45C[C@H]4CCN5)nc(OC[C@@]45CCCN4C[C@H](F)C5)nc3c2F)c2ccccc2c1 [Example 40, bis(2,2,2-trifluoroacetate)]")
5150
>>> result_number("CC(C)c1c(Cl)cccc1-c1ncc2c(NCC3(N(C)C)CCC3)nc(OCC34CCCN3CCC4)nc2c1F")
513
>>> result_number("CN1CCC[C@H]1COc1nc(NC2C3CNCC32)c2cnc(-c3cc(O)cc4ccccc34)c(F)c2n1 (stereo partly shown) [Example 5, bis(2,2,2-trifluoroacetate)]")
2260
>>> result_number("CN(C)C1(CNc2nc(OC[C@@]34CCCN3C[C@H](F)C4)nc3c(F)c(-c4cccc5cccc(C(F)(F)F)c45)ncc23)CCC1")
239
>>> result_number("C=C(C)c1cccc2cccc(-c3ncc4c(NCC5(N(C)C)CCC5)nc(OCC56CCCN5C[C@H](F)C6)nc4c3F)c12 (mixture of isomers)")
954
>>> result_number("CC1(CNc2nc(OC[C@@]34CCCN3C[C@H](F)C4)nc3c(F)c(-c4cc(O)cc5ccccc45)ncc23)CNC1")
39.9
>>> result_number("Oc1cc(-c2ncc3c(NC4CNC4)nc(OCC45CCCN4CCC5)nc3c2F)c2ccccc2c1")
46.5
